EC50 by entry:
Tested on: human D2R/β-arrestin (Homo sapiens (Human))
Sequence (P14416 whole entry): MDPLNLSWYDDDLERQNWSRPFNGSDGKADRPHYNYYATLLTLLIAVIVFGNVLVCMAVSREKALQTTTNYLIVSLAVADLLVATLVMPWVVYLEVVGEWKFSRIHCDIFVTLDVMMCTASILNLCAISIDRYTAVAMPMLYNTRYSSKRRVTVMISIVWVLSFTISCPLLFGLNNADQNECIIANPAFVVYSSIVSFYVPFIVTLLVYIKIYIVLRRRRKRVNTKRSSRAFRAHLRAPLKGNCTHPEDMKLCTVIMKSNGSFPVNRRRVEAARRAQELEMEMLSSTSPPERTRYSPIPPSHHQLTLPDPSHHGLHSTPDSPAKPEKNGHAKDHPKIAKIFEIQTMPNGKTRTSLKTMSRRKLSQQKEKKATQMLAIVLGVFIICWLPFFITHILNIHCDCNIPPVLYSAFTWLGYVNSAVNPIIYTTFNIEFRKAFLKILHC
Procedure details: Gi/cAMP agonist assay (Lance Ultra cAMP, Forskolin)
Format: cell-based
Test conditions: CHO-K1 cell line expressing human D2R/β-arrestin

Completed entries (count: 5):
{"columns": ["Compound", "Value type", "Obs value"],
 "data": [
  ["CC(=O)N(CC1CCN(CCOc2ccccc2)CC1)C(c1ccc(Cl)cc1)c1ccccn1 (stereo not shown)", "EC50", "0.1 to 1 µM"],
  ["O=C(NC(c1ccccn1)c1ccccc1F)C1CCN(CCOc2ccccc2)CC1 (stereo not shown)", "EC50", "0.1 to 1 µM"],
  ["O=C(NC(c1ccc(Cl)cc1)c1ccccn1)C1CCN(CCOc2ccc(F)cc2F)CC1 (single isomer, unassigned) [Compound 115b]", "EC50", "> 30 µM"],
  ["CC(C1CCN(CCOc2ccccc2)CC1)N(C)C(c1ccc(Cl)cc1)c1ccccn1 (single isomer, unassigned) [Compound 97c]", "EC50", "> 30 µM"],
  ["O=C(NC(c1ccc(Cl)cc1)c1ccccn1)C1CCN(CCOc2ccccc2Cl)CC1 (stereo not shown)", "EC50", "10 to 30 µM"]
]}

Given the entry Clc1ccc(C(c2ccccn2)N2CCC3(CCN(CCOc4ccccc4)CC3)C2)cc1 (stereo not shown) [Compound 105] , report its measured EC50.
0.1 to 1 µM

Given the entry O=C(NC(c1ccc(Cl)cc1)c1ccccn1)C1CCN(CCOc2c(F)cccc2F)CC1 (stereo not shown) , report its measured EC50.
> 30 µM

Given the entry O=C(NC(c1ccc(Cl)cc1)c1cccc(F)c1)C1CCN(CCOc2ccccc2)CC1 (stereo not shown) , report its measured EC50.
> 30 µM

====

Tested on: human D2R/β-arrestin (Homo sapiens (Human))
Procedure details: Gi/cAMP agonist assay (Lance Ultra cAMP, Forskolin)
Assay type: cell-based
Test conditions: CHO-K1 cell line expressing human D2R/β-arrestin
Value type: EC50

{"columns": ["Compound", "EC50"],
 "data": [
  ["CC(C)N(CC1CCN(CCOc2ccc(F)cc2)CC1)C(c1ccc(Cl)cc1)c1ccccn1 (stereo not drawn) [Compound 135]", "> 30 µM"],
  ["O=C(NC(c1cccc(OC(F)(F)F)c1)c1ccccn1)C1CCN(CCOc2ccccc2F)CC1 (single isomer, unassigned) [Compound 93a]", "10 to 30 µM"],
  ["FC(F)(F)CN(CC1CCN(CCOc2ccccc2)CC1)C(c1ccc(Cl)cc1)c1ccccn1 (single isomer, unassigned) [Compound 125a]", "0.1 to 1 µM"]
]}

Test system human D2R/β-arrestin (Homo sapiens (Human)); read-out EC50; what value for CN(CC1CCN(CCOc2ccccc2F)CC1)C(c1ccc2c(c1)OCO2)c1ccccn1 (single isomer, unassigned) [Compound 138a] ?
< 0.1 µM

Test system human D2R/β-arrestin (Homo sapiens (Human)); read-out EC50; what value for O=C(NC(c1ccc(Cl)cc1)c1ccccn1)C1CCN(CCCc2ccccc2)CC1 (stereo not drawn) [Compound 18] ?
0.1 to 1 µM

Test system human D2R/β-arrestin (Homo sapiens (Human)); read-out EC50; what value for COc1cccc(C(NC(=O)C2CCN(CCOc3ccc(F)cc3F)CC2)c2ccccn2)c1 (stereo not drawn) [Compound 145] ?
10 to 30 µM

Test system human D2R/β-arrestin (Homo sapiens (Human)); read-out EC50; what value for COc1cccc(OCCN2CCC(C(=O)NC(c3ccc(Cl)cc3)c3ccccn3)CC2)c1 (stereo not drawn) [Compound 12] ?
10 to 30 µM

Test system human D2R/β-arrestin (Homo sapiens (Human)); read-out EC50; what value for O=C(NC(c1ccc(Cl)cc1)c1ccc(F)cn1)C1CCN(CCOc2ccccc2)CC1 (stereo not drawn) [Compound 116] ?
0.1 to 1 µM

Test system human D2R/β-arrestin (Homo sapiens (Human)); read-out EC50; what value for O=C(NC(c1ccc(Cl)cc1)c1ccccn1)C1CCN(CCOc2cccc(Cl)c2)CC1 (stereo not drawn) [Compound 1] ?
< 0.1 µM

Test system human D2R/β-arrestin (Homo sapiens (Human)); read-out EC50; what value for CN(CC1CCN(CCOc2ccccc2F)CC1)C(c1ccc(Cl)cc1)c1ccccn1 (single isomer, unassigned) [Compound 72b] ?
> 30 µM

Test system human D2R/β-arrestin (Homo sapiens (Human)); read-out EC50; what value for O=C(NC(c1cccc(C(F)(F)F)c1)c1ccccn1)C1CCN(CCOc2ccccc2)CC1 (stereo not drawn) [Compound 32] ?
10 to 30 µM

Test system human D2R/β-arrestin (Homo sapiens (Human)); read-out EC50; what value for CN(CC1CCN(CCOc2ccccc2)CC1)C(c1ccc(Cl)cc1)c1ccccn1 (single isomer, unassigned) [Compound 79a] ?
> 30 µM

Test system human D2R/β-arrestin (Homo sapiens (Human)); read-out EC50; what value for CN(CC1CCN(CCOc2ccccc2)CC1)C(c1ccc(F)cc1)c1ccccn1 (single isomer, unassigned) [Compound 74a] ?
1 to 10 µM

Test system human D2R/β-arrestin (Homo sapiens (Human)); read-out EC50; what value for CC1(C(=O)NC(c2ccc(F)cc2)c2ccccn2)CCN(CCOc2ccccc2)CC1 (stereo not drawn) [Compound 69] ?
< 0.1 µM

Test system human D2R/β-arrestin (Homo sapiens (Human)); read-out EC50; what value for O=C(NC(c1cccc(OC(F)(F)F)c1)c1ccccn1)C1CCN(CCOc2ccccc2F)CC1 (stereo not drawn) [Compound 93] ?
< 0.1 µM
